System: HepG2
experimentNotes: cytotoxicity call (relative viability < 0.9)
conditionDetails: 10 µM
The campaign covered roughly 39,000 compounds. About 3,300 (8.5%) were called active. Only a selection was taken, and actives are over-represented in it overall.
Respond using exactly one of the listed classes: active, inactive

Study these solved cases before continuing.
COc1ccc(NC(=O)Nc2cccc3c2O[C@H](CN(C)Cc2ccc(C(F)(F)F)cc2)[C@H](C)CN([C@@H](C)CO)C3=O)cc1; inactive
Cn1c(CNc2ccccc2)cc(=O)n(C)c1=O; inactive
CC(=O)OC1C(=O)C2(C)C(O)CC3OCC3(OC(C)=O)C2C(OC(=O)c2ccccc2)C2(O)CC(OC(=O)C(O)C(NC(=O)c3ccccc3)c3ccccc3)C(C)=C1C2(C)C (centres undefined); active

From here, focus on the item given below.
Exercise: Hi, do you know how "COc1ccc(NC(=O)Nc2ccc3c(c2)C(=O)N([C@@H](C)CO)C[C@@H](C)[C@H](CN(C)C(=O)Nc2ccccc2)OCCCC[C@@H](C)O3)cc1" came out in this test?
Solution: inactive

Where these numbers come from: the antibiotic and cytotoxicity screens of Wong et al. (2023)
